This collection of values is drawn from the NIST ThermoML archive (doi:10.1021/je050402s).

We begin with a simple list: items and their reported mass density.
- EXPERIMENTAL DETAILS: xn = mol fraction of the nth substance listed
- PARTICULARS: 318.15 K; 100.5 kPa; Liquid; x1 = 0.6
Unit kg/m3 implied. Number only.

The following molecules have reported results that may help.
1) CCOC(=O)CC(C)C [ethyl 3-methylbutanoate] + CCO = 823.56
2) CCOC(=O)CC(C)=O [ethyl 3-oxobutanoate] + CCO = 946.84
3) COC(=O)c1ccccc1 [methyl benzoate] + CCO = 995.26

Query: Sample CCOC(=O)c1ccccc1O [ethyl 2-hydroxybenzoate] + CCO — what was its mass density?
Result: 1035.76

Query: Now the same for CC(=O)OCc1ccccc1 [benzyl ethanoate] + CCO
Result: 976.03

Query: Now the same for CCC(=O)OCc1ccccc1 [benzyl propanoate] + CCO
Result: 962.24

----------
We begin with a simple list: items and their reported mass density.
- EXPERIMENTAL DETAILS: xn = mol fraction of the nth substance listed
- PARTICULARS: 288.15 K; 100.5 kPa; Liquid; x1 = 0.65
Unit kg/m3 implied. Number only.

1. CCC(=O)OCc1ccccc1 [benzyl propanoate] + CCO = 997.98
2. CCOC(=O)c1ccccc1O [ethyl 2-hydroxybenzoate] + CCO = 1076.35
3. CCOC(=O)CC(C)=O [ethyl 3-oxobutanoate] + CCO = 986.4
4. CCOC(=O)CC(C)C [ethyl 3-methylbutanoate] + CCO = 855.93
5. COC(=O)c1ccccc1 [methyl benzoate] + CCO = 1034.94

Query: Sample CC(=O)OCc1ccccc1 [benzyl ethanoate] + CCO — what was its mass density?
Result: 1013.4

----------
- EXPERIMENTAL DETAILS: xn = mol fraction of the nth substance listed
- PARTICULARS: 288.15 K; 100.5 kPa; Liquid; x1 = 0.8
We begin with a simple list: items and their reported mass density.
Unit kg/m3 implied. Number only.

The following molecules have reported results that may help.
1) CCOC(=O)c1ccccc1O [ethyl 2-hydroxybenzoate] + CCO = 1104.72
2) CCOC(=O)CC(C)=O [ethyl 3-oxobutanoate] + CCO = 1009.18
3) COC(=O)c1ccccc1 [methyl benzoate] + CCO = 1062.88
4) CCC(=O)OCc1ccccc1 [benzyl propanoate] + CCO = 1016.98
5) CCOC(=O)CC(C)C [ethyl 3-methylbutanoate] + CCO = 862.52

Let's switch to this molecule now.
Query: Sample CC(=O)OCc1ccccc1 [benzyl ethanoate] + CCO — what was its mass density?
Result: 1036.05

----------
- EXPERIMENTAL DETAILS: xn = mol fraction of the nth substance listed
- PARTICULARS: 288.15 K; 100.5 kPa; Liquid; Capillary tube (Ostwald / Ubbelohde) method; x1 = 0.65
QUANTITY NAME: viscosity (mPa·s)
Unit mPa·s implied. Number only.

Query: Sample CCOC(=O)CC(C)C [ethyl 3-methylbutanoate] + CCO — what was its viscosity?
Result: 0.835

Query: Now the same for CCOC(=O)CC(C)=O [ethyl 3-oxobutanoate] + CCO
Result: 1.484

Query: Now the same for CCC(=O)OCc1ccccc1 [benzyl propanoate] + CCO
Result: 2.019

Query: Now the same for CC(=O)OCc1ccccc1 [benzyl ethanoate] + CCO
Result: 1.929

Query: Now the same for COC(=O)c1ccccc1 [methyl benzoate] + CCO
Result: 1.746

----------
- EXPERIMENTAL DETAILS: xn = mol fraction of the nth substance listed
- PARTICULARS: 288.15 K; 100.5 kPa; Liquid; Capillary tube (Ostwald / Ubbelohde) method; x1 = 0.45
QUANTITY NAME: viscosity (mPa·s)
Unit mPa·s implied. Number only.

The following molecules have reported results that may help.
1. CCOC(=O)CC(C)C [ethyl 3-methylbutanoate] + CCO = 0.867
2. CCOC(=O)CC(C)=O [ethyl 3-oxobutanoate] + CCO = 1.312
3. COC(=O)c1ccccc1 [methyl benzoate] + CCO = 1.541
4. CC(=O)OCc1ccccc1 [benzyl ethanoate] + CCO = 1.661

Let's switch to this molecule now.
Query: Sample CCC(=O)OCc1ccccc1 [benzyl propanoate] + CCO — what was its viscosity?
Result: 1.757

----------
- EXPERIMENTAL DETAILS: xn = mol fraction of the nth substance listed
- PARTICULARS: 288.15 K; 100.5 kPa; Liquid; x1 = 0.7
Classification field: enter 1 for mass density values not below 1000 kg/m3, -1 for values below it.

1) CCOC(=O)CC(C)C [ethyl 3-methylbutanoate] + CCO = -1
2) COC(=O)c1ccccc1 [methyl benzoate] + CCO = 1

Please look at the following molecule next.
Query: Record CCOC(=O)c1ccccc1O [ethyl 2-hydroxybenzoate] + CCO ; criterion: mass density no lower than 1000 kg/m3. Met?
Result: 1

----------
- EXPERIMENTAL DETAILS: xn = mol fraction of the nth substance listed
- PARTICULARS: 308.15 K; 100.5 kPa; Liquid; Capillary tube (Ostwald / Ubbelohde) method; x1 = 0.65
We begin with a simple list: items and their reported viscosity.
Unit mPa·s implied. Number only.

The following compounds have reported results that may help.
1. CCOC(=O)CC(C)=O [ethyl 3-oxobutanoate] + CCO = 1.036
2. CCC(=O)OCc1ccccc1 [benzyl propanoate] + CCO = 1.407
3. COC(=O)c1ccccc1 [methyl benzoate] + CCO = 1.193
4. CC(=O)OCc1ccccc1 [benzyl ethanoate] + CCO = 1.312

Let's switch to this compound now.
Query: Sample CCOC(=O)CC(C)C [ethyl 3-methylbutanoate] + CCO — what was its viscosity?
Result: 0.62

----------
We begin with a simple list: items and their reported mass density.
- EXPERIMENTAL DETAILS: xn = mol fraction of the nth substance listed
- PARTICULARS: 318.15 K; 100.5 kPa; Liquid; x1 = 0.15
Unit kg/m3 implied. Number only.

1. CCC(=O)OCc1ccccc1 [benzyl propanoate] + CCO = 847.75

Query: Sample CCOC(=O)CC(C)C [ethyl 3-methylbutanoate] + CCO — what was its mass density?
Result: 789.31

Query: Now the same for CC(=O)OCc1ccccc1 [benzyl ethanoate] + CCO
Result: 848.94

Query: Now the same for CCOC(=O)CC(C)=O [ethyl 3-oxobutanoate] + CCO
Result: 832.67

Query: Now the same for CCOC(=O)c1ccccc1O [ethyl 2-hydroxybenzoate] + CCO
Result: 873.95

Query: Now the same for COC(=O)c1ccccc1 [methyl benzoate] + CCO
Result: 851.28

----------
- EXPERIMENTAL DETAILS: xn = mol fraction of the nth substance listed
- PARTICULARS: 298.15 K; 100.5 kPa; Liquid; x1 = 0.05
QUANTITY NAME: mass density (kg/m3)
Unit kg/m3 implied. Number only.

Query: Sample CCOC(=O)c1ccccc1O [ethyl 2-hydroxybenzoate] + CCO — what was its mass density?
Result: 826.63

Query: Now the same for CCC(=O)OCc1ccccc1 [benzyl propanoate] + CCO
Result: 816.86

Query: Now the same for CCOC(=O)CC(C)=O [ethyl 3-oxobutanoate] + CCO
Result: 809.91

Query: Now the same for CC(=O)OCc1ccccc1 [benzyl ethanoate] + CCO
Result: 816.73

Query: Now the same for COC(=O)c1ccccc1 [methyl benzoate] + CCO
Result: 816.86

Query: Now the same for CCOC(=O)CC(C)C [ethyl 3-methylbutanoate] + CCO
Result: 793.85

----------
We begin with a simple list: items and their reported viscosity.
- EXPERIMENTAL DETAILS: xn = mol fraction of the nth substance listed
- PARTICULARS: 298.15 K; 100.5 kPa; Liquid; Capillary tube (Ostwald / Ubbelohde) method; x1 = 0.35
± gives the expanded uncertainty stated by the source.
Form entry: enter the amount, then its unit.

The following molecules have reported results that may help.
1. CCOC(=O)CC(C)=O [ethyl 3-oxobutanoate] + CCO = 1.038 ± 0.013 mPa·s
2. CC(=O)OCc1ccccc1 [benzyl ethanoate] + CCO = 1.274 ± 0.014 mPa·s
3. COC(=O)c1ccccc1 [methyl benzoate] + CCO = 1.199 ± 0.014 mPa·s
4. CCC(=O)OCc1ccccc1 [benzyl propanoate] + CCO = 1.348 ± 0.014 mPa·s

Let's switch to this molecule now.
Query: Sample CCOC(=O)CC(C)C [ethyl 3-methylbutanoate] + CCO — what was its viscosity?
Result: 0.771 ± 0.013 mPa·s

----------
- EXPERIMENTAL DETAILS: xn = mol fraction of the nth substance listed
- PARTICULARS: 308.15 K; 100.5 kPa; Liquid; x1 = 0.1
We begin with a simple list: items and their reported mass density.
Unit kg/m3 implied. Number only.

1. CC(=O)OCc1ccccc1 [benzyl ethanoate] + CCO = 834.85
2. CCC(=O)OCc1ccccc1 [benzyl propanoate] + CCO = 834.48
3. CCOC(=O)CC(C)=O [ethyl 3-oxobutanoate] + CCO = 822.68
4. CCOC(=O)c1ccccc1O [ethyl 2-hydroxybenzoate] + CCO = 852.86
5. COC(=O)c1ccccc1 [methyl benzoate] + CCO = 835.86

Let's switch to this compound now.
Query: Sample CCOC(=O)CC(C)C [ethyl 3-methylbutanoate] + CCO — what was its mass density?
Result: 792.29
